- TARGET SYSTEM: Human Cathepsin S (Homo sapiens)
- Construct: purchased ABCAM (so in the source) 1183-cy
- Sequence (P25774 115-331): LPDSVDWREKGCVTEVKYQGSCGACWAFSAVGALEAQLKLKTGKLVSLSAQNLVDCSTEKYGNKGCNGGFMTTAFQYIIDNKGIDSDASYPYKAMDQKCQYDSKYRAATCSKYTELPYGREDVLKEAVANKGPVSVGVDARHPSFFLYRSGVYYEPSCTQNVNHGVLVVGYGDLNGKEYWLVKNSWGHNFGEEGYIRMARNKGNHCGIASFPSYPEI
- ASSAY SUMMARY: Enzyme inhibition assay, Human Cathepsin S (fluorometric)
- Type: biochemical
- RUN PARAMETERS: triplicates, value (SD)
- Description: Enzyme inhibition assays were performed in triplicates using transparent 96-well plates for Calpain, Trypsin, Papain, Cathepsin L and Cathepsin B (167008; Nunc, Roskilde, Denmark), or black ones for Cathepsin S, (Greiner 96 Polystyrol GRE96fb), according to manufacturers’ instructions. Briefly, a reaction mixture of 100 µL contained: 45µL of enzyme in assay buffer, 5 µL of inhibitor diluted in DMSO. 50 µL substrate prepared in assay buffer according to manufacturers’ instructions. […]
READOUT KIND: IC50 (µM)
One number for each entry, in µM.

// fetch Human Cathepsin S (Homo sapiens) IC50 for CC1CCC(c2ccoc2)N2C1CCC1(CSC3(CCC4C(C)CCC(c5ccoc5)N4C3O)C1)C2O (stereo not shown) [DTBN, 6,6′-dihydroxythiobinupharidine]
3.2
